target: KRAS G12S (Homo sapiens (Human), UniProt P01116+P62937, G12S); assay: Ras-Raf (BRAF RBD) disruption / FRET / MOA assay, KRAS G12S; format: biochemical; conditions: Ras-Raf disruption/FRET/MOA assay; class symbols; read-out: KRAS G12S FRET data IC50
Sequence (P01116-2 other isoform, or with tags, fused parts or gaps G12S): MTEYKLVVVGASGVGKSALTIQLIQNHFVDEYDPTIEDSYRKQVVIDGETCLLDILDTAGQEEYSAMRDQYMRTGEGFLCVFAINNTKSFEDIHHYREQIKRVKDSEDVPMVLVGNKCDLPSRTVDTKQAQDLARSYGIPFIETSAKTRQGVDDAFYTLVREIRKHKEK
Sequence (P62937 whole entry): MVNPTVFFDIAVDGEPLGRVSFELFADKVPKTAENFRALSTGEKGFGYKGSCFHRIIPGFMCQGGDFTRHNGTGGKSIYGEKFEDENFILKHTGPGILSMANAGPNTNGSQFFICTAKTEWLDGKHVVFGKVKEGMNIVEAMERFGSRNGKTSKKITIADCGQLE
Listing: IC50 of selected compounds

Answered examples (4):
C=CC(=O)N1CC[C@H](C(=O)N(C)[C@H](C(=O)N[C@H]2CN(C)C(=O)Cc3ccc4c(c3)c(c(-c3cccnc3COC)n4CC)CC(C)(C)COC(=O)[C@@H]3CCCN(N3)C2=O)C(C)C)C1 | > 10000 nM
C=CC(=O)N1CC[C@H](C(=O)N(C)[C@H](C(=O)N[C@H]2C[C@H]3CN(CCO3)c3ccc4c(c3)c(c(-c3cccnc3COC)n4CC)CC(C)(C)COC(=O)[C@@H]3CCCN(N3)C2=O)C(C)C)C1 | > 10000 nM
C=CC(=O)N1CC[C@H](C(=O)N(C)[C@H](C(=O)N[C@H]2Cc3cc(O)cc(c3)-c3ccc4c(c3)c(c(-c3cnn(C)c3)n4CC)CC(C)(C)COC(=O)[C@@H]3CCCN(N3)C2=O)C(C)C)C1 | 1000 to 10000 nM
C=CC(=O)Nc1cnc(C(=O)N(C)[C@H](C(=O)N[C@H]2Cc3cccc(c3)-c3ccc4c(c3)c(c(-c3cccnc3[C@H](C)OC)n4CC)CC(C)(C)COC(=O)[C@@H]3CCCN(N3)C2=O)C(C)C)n1C (atropisomer, axis not shown) [Example A525] | 1000 to 10000 nM

Query block: # input compound: C=CC(=O)N1C[C@@H](C)N(C(=O)N(C)[C@H](C(=O)N[C@H]2Cc3nc(cs3)-c3ccc4c(c3)c(c(-c3cccnc3[C@H](C)OC)n4CC)CC(C)(C)COC(=O)[C@@H]3CCCN(N3)C2=O)C(C)C)[C@@H](C)C1 (atropisomer, axis not shown) ; wanted: its IC50
Result block: 100 to 1000 nM

Query block: Another compound to look at: CCn1c(-c2cccnc2[C@H](C)OC)c2c3cc(ccc31)C1=CCCN(C1)C[C@H](NC(=O)[C@H](C(C)C)N(C)C(=O)C1(F)CCN(C(=O)C#CC(C)(C)N(C)C)CC1)C(=O)N1CCC[C@H](N1)C(=O)OCC(C)(C)C2 (atropisomer, axis not shown)
Result block: 100 to 1000 nM

Query block: Now this one: CO[C@@H](C)c1ncc(N2CCN(C)CC2)cc1-c1c2c3cc(ccc3n1CC(F)(F)F)-c1cccc(c1)C[C@H](NC(=O)[C@H](C(C)C)N(C)C(=O)C1(F)CCN(C(=O)C#CC(C)(C)N(C)C)CC1)C(=O)N1CCC[C@H](N1)C(=O)OCC(C)(C)C2 (atropisomer, axis not shown)
Result block: 10 to 100 nM

Query block: C=CC(=O)N1CCOC2(C1)CN(C(=O)N(C)[C@H](C(=O)N[C@H]1Cc3cccc(c3)-c3ccc4c(c3)c(c(-c3cccnc3[C@H](C)OC)n4CC(F)(F)F)CC(C)(C)COC(=O)[C@@H]3CCCN(N3)C1=O)C(C)C)C2 (atropisomer, axis not shown) , same question.
Result block: 100 to 1000 nM

The reported numbers originate from patent US11566007B2.
